- Tested on: MCF7 breast
- Experiment notes: NCI tumour cell line growth inhibition, 48 h
Quantity kind: TGI

Query: TGI; subject: Cc1nc2ccccc2c(=O)n1CC(=O)O
> 100 µM

What does the data say about its TGI? Entry: CC(C)(C)OC(=O)NC(Cc1cnc[nH]1)C(=O)N1CCCC1C(N)=O (stereo not given)
> 100 µM

# query: TGI of entry CCOC(=O)C(=O)N=Nc1nc2c(O)c3ccccc3c(O)c2s1
30.4 µM

# get_value(readout='TGI', item= CCCN(CCCCN1C(=O)c2ccccc2C1=O)CC1COc2ccccc2O1 (stereo not given) )
> 100 µM

Need TGI, item Nc1nc(NNc2ccc(Cl)c(Cl)c2)cc(=O)[nH]1
72.5 µM
